experiment: Clearance in rat at 1 mg/kg, iv administered as single dose by LC/MS/MS analysis; type: ADME, organism-based; settings: in vivo
Measurement Label: clearance (mL/min/kg)
Write the value in mL/min/kg as a bare number.

Identify the reported clearance for the following entry. CCOC(=O)N1CC/C(=C\C#Cc2cccc(C)n2)C1 12

* * *

test: Volume of distribution at steady state in rat at 1 mg/kg, iv administered as single dose by LC/MS/MS analysis; type: ADME, organism-based; settings: in vivo, read-out: Vdss
Measurement Label: Vd
A complete answer gives the number and then names the unit.

State its Vd for this molecule: CCOC(=O)N1CC/C(=C\C#Cc2cccc(C)n2)C1 0.45 L/kg
